Assay: NCI Yeast Anticancer Drug Screen. Data for the rad50 strain (AID 155);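 note: 0% = growth of vehicle-only cultures of the same strain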
Conditions: S. cerevisiae rad50 strain growth inhibition; at 50.0 µM; stronger effect = higher value
Compounds without any hit were thinned out: in the full panel of roughly 79,000, 15% have a hit.
PARAMETER: growth inhibition (%)
Write it as a number; the unit % goes unstated.

INPUT: Record request: growth inhibition value, item O=C(NC(CCS(=O)(=O)n1ccnc1)C(=O)OCc1ccccc1)OCc1ccccc1 (stereo not given)
OUTPUT: 12.7

INPUT: I would be grateful if you could share the reported growth inhibition for CCOC(=O)CCC1(C(=O)OCC)CCCCC1=O (stereo not given) .
OUTPUT: -16.9

INPUT: Query: growth inhibition; subject: COc1ccc(CSC(=S)Nc2ccc(C)c(Cl)c2)cc1
OUTPUT: 26

INPUT: Please give the measured growth inhibition for this compound: Cc1cc(C)c(C)c(Br)c1
OUTPUT: 5

INPUT: # get_value(readout='growth inhibition', item= CCOC(=O)NC(CI)(c1ccccc1)c1ccccc1 )
OUTPUT: 20.9

INPUT: Give the measured growth inhibition of O=C1CN(C2CCCCC2)CC(=O)N2C(c3ccccc3)CCCN12 (stereo not given) .
OUTPUT: 3.3

INPUT: Form field: reported growth inhibition of O=C=Nc1ccc(Cl)c(Cl)c1
OUTPUT: -19.9

INPUT: Which growth inhibition reading was recorded for the compound COC(=O)N/N=C(/Cc1occc(=O)c1O)C(=O)Nc1ccc([N+](=O)[O-])cc1[N+](=O)[O-] ?
OUTPUT: -11.1

INPUT: Any idea what growth inhibition was measured for CN(C)CCCNC=O ?
OUTPUT: -30.2

INPUT: Recorded growth inhibition for CC(O)(CCCCCl)c1nc2ccccc2s1 (stereo not given) , please?
OUTPUT: 20.9

INPUT: Reported growth inhibition for CCC(=O)c1c(O)c2ccccc2oc1=O : what is it?
OUTPUT: -21.1

INPUT: Consider the compound CC(C)=CC1CCc2ccccc2N1S(=O)(=O)c1ccc(C)cc1 (stereo not given) and give its measured growth inhibition.
OUTPUT: 31.8

INPUT: State the recorded growth inhibition for this entry: CCOC(=O)CN1CC(C2=C(O)CN(CC(=O)OCC)C2=O)=CC1=O
OUTPUT: 0.75

INPUT: May I ask what growth inhibition has been recorded for C=C1CN2CCc3c([nH]c4ccccc34)C2CC1CC(=O)N(C)C (stereo not given) ?
OUTPUT: -33.5

INPUT: Recorded growth inhibition of CC(c1ccccc1)C(C)(C)O (stereo not given) , please.
OUTPUT: 10.2

INPUT: I would be grateful if you could share the reported growth inhibition for O=[N+]([O-])c1ccc(-c2cccc3ccccc23)c([N+](=O)[O-])c1 .
OUTPUT: 15.7

INPUT: Fill in: growth inhibition of CC1(C)COCOC1c1ccccc1 (stereo not given) is ___
OUTPUT: -6.2

INPUT: Requested read-out: growth inhibition. Entry: NC(CC(=O)OCc1ccccc1)C(=O)OCc1ccccc1 (stereo not given)
OUTPUT: 9.1

INPUT: Consider the compound shown here: CC1(C)CC(O)CC(O)C1 (stereo not given) What is its recorded growth inhibition?
OUTPUT: -4.3

INPUT: // query growth inhibition value for entry COc1cccc(NC(=O)CC(=O)N2N=C(N(CCC#N)c3ccc(Cl)cc3)CC2c2ccccc2)c1 (stereo not given)
OUTPUT: 19.1

INPUT: Recorded growth inhibition of COCCN(CCOC)C1C2=C(CCCC2)OS(=O)(=O)C1c1ccccc1 (stereo not given) , please.
OUTPUT: 26.9

INPUT: Could you tell me which growth inhibition is on file for CCN(CC)CC(O)Cn1cnc2c(SC)ncnc21 (stereo not given) ?
OUTPUT: -0.75

INPUT: So what's the measured growth inhibition for this one? CCCCCCCCCCOC(=O)Nc1cccc(O)c1
OUTPUT: 29.8

INPUT: Form field: reported growth inhibition of Cn1c2nc(=O)n(-c3ccccc3)c(=O)c-2nc2c1CCCC2
OUTPUT: -4.95

INPUT: Please give the measured growth inhibition for this compound: CCOC(=O)C(C(C)=O)C(c1ccc(N(C)C)cc1)c1ccc(N(C)C)cc1 (stereo not given)
OUTPUT: 4
